The compounds below each have a reported pKi tested on Adenosine receptor A1 (Homo sapiens, UniProt P30542); the values come from various publications.
Sequence (P30542 whole entry): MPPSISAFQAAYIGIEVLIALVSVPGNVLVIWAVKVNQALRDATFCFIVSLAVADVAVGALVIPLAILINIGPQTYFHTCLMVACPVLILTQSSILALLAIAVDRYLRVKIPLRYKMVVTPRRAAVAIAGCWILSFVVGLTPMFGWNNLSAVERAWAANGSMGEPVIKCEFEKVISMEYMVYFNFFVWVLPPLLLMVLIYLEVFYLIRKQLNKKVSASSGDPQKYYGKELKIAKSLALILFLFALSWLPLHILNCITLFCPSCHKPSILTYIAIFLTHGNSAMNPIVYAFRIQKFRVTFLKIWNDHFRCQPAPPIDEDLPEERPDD
The read-out pKi is expressed as -log10 of concentration in moles per litre.

Solved entries (count: 4):
test smiles	measured property	experimental value
CCOC(=O)[C@@]12C[C@@H]1[C@@H](n1cnc3c(NCc4cccc(Cl)c4)nc(Cl)nc31)[C@H](O)[C@@H]2O	pKi	5.32
COc1cccc(-c2nc(N)c3nc(-c4ccco4)sc3n2)c1	pKi	7.21
Cn1cc2c(nc(NC(=O)Cc3cccc(Cl)c3)n3nc(-c4ccco4)nc23)n1	pKi	6.39
O=C(O)c1cnc(NC2CCCC2)n2nc(-c3ccco3)nc12	pKi	5.42

Name the recorded pKi for `N#Cc1c(N)nc(SCc2csc(-c3ccc(I)cc3)n2)nc1-c1ccc2c(c1)OCO2` . 8.00
